- MEASUREMENT_PROTOCOL: Plasma pharmacokinetics of BI 187004 after single oral doses (LC–MS/MS)
- EXPERIMENTAL_PARAMETERS: male, human, plasma, po, 360 mg, BI 187004 plasma concentrations, Max, 360 mg single oral, planned time 2.5 h

COMPOUND	concentration at 2.5 h
N#Cc1ccc2c(c1)[C@H]1CCCN(C(=O)c3ccc4[nH]cnc4c3)[C@H]1C2 [BI 187004]	14.6 µM

* * *

- MEASUREMENT_PROTOCOL: Plasma pharmacokinetics of BI 187004 after single oral doses (LC–MS/MS)
- EXPERIMENTAL_PARAMETERS: male, human, plasma, po, 5 mg, Plasma concentration Mean, 5 mg single oral; 10 h

COMPOUND_STRUCTURE	UNIT_LABEL	concentration at 10 h
N#Cc1ccc2c(c1)[C@H]1CCCN(C(=O)c3ccc4[nH]cnc4c3)[C@H]1C2	nM	58

* * *

- MEASUREMENT_PROTOCOL: Plasma pharmacokinetics of BI 187004 after single oral doses (LC–MS/MS)
- EXPERIMENTAL_PARAMETERS: male, human, plasma, po, 40 mg, BI 187004 plasma concentrations, 40 mg single oral, planned time 48 h, Max

MOLECULE	concentration at 48 h [nM]
N#Cc1ccc2c(c1)[C@H]1CCCN(C(=O)c3ccc4[nH]cnc4c3)[C@H]1C2 [BI 187004]	234

* * *

- MEASUREMENT_PROTOCOL: Plasma pharmacokinetics of BI 187004 after single oral doses (LC–MS/MS)
- EXPERIMENTAL_PARAMETERS: male, human, plasma, po, 2.5 mg, Plasma concentration gMean, 2.5 mg single oral; 2.5 h
REPORTED_PROPERTY: concentration at 2.5 h (nM)

COMPOUND_STRUCTURE	DATA_VALUE
N#Cc1ccc2c(c1)[C@H]1CCCN(C(=O)c3ccc4[nH]cnc4c3)[C@H]1C2	7.33

* * *

- MEASUREMENT_PROTOCOL: Plasma pharmacokinetics of BI 187004 after single oral doses (LC–MS/MS)
- EXPERIMENTAL_PARAMETERS: male, human, plasma, po, 40 mg

COMPOUND	half-life (h)
N#Cc1ccc2c(c1)[C@H]1CCCN(C(=O)c3ccc4[nH]cnc4c3)[C@H]1C2 [BI 187004]	18.9

* * *

- MEASUREMENT_PROTOCOL: Plasma pharmacokinetics of BI 187004 after single oral doses (LC–MS/MS)
- EXPERIMENTAL_PARAMETERS: male, human, plasma, po, 5 mg, Plasma concentration, individual subjects, 5 mg single oral; planned time 1 h
REPORTED_PROPERTY: concentration at 1 h (nM)

MOLECULE	REPORTED_PROPERTY	DATA_VALUE
N#Cc1ccc2c(c1)[C@H]1CCCN(C(=O)c3ccc4[nH]cnc4c3)[C@H]1C2 [BI 187004]	concentration at 1 h	112

* * *

- MEASUREMENT_PROTOCOL: Plasma pharmacokinetics of BI 187004 after single oral doses (LC–MS/MS)
- EXPERIMENTAL_PARAMETERS: male, human, plasma, po, 160 mg, BI 187004 plasma concentrations, 160 mg single oral, planned time 36 h, Min
REPORTED_PROPERTY: concentration at 36 h

COMPOUND	DATA_VALUE
N#Cc1ccc2c(c1)[C@H]1CCCN(C(=O)c3ccc4[nH]cnc4c3)[C@H]1C2 [BI 187004]	476 nM
